For each entry below, report its IC50 value.
molecular target: nicotinic receptors comprising the α7 subunit (Rattus norvegicus); assay: biochemical
Sequence (Q05941 23-502): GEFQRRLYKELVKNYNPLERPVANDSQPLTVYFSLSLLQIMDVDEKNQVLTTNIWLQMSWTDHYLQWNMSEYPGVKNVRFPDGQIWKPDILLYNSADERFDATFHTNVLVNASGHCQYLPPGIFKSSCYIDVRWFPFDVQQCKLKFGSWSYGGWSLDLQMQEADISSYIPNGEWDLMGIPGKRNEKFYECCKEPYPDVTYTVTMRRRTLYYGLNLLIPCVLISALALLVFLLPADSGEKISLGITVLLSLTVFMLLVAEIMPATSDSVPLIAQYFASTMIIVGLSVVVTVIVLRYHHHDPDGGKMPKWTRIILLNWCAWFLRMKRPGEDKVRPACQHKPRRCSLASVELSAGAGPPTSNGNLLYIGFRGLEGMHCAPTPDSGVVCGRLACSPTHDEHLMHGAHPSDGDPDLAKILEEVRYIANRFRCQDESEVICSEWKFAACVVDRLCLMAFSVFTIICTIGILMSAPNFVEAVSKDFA
Please append the unit to your numeric answer.

# IC50 lookup, item c1cc(-c2ccc(C34CCN(CC3)C4)cn2)cc(-n2cccn2)c1
4.7 nM

# IC50 lookup, item Fc1cccc(-c2ccc(C34CCN(CC3)C4)cn2)c1
13.8 nM

# IC50 lookup, item c1cc2c(cc1-c1ccc(C34CCN(CC3)C4)cn1)OCO2
9.1 nM

# IC50 lookup, item c1cnc2ccc(-c3ccc(C45CCN(CC4)C5)cn3)cc2c1
37.1 nM
